- Tested on: MELK;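 further: KINOMEscan kinase panel screen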
- conditions: concentration: 1 μM, replicates: in singlicate; n = 1
Property: %Inh; scope: individual molecules
State the value, then name its unit.

// known answers, use as guide
Identify the reported %Inh for the following entry. CN(C)c1cc(-c2ccc3c(N)n[nH]c3c2)nc(N)n1 0%

Dear colleague, please send me the reported %Inh for COc1cccc(C2=C(N(C)c3ccccc3)C(=O)NC2=O)c1 when you can. 0%

State its %Inh for this molecule: CCc1ccc(-c2ccc3c(c2)-c2nn(C)cc2S(=O)(=O)N3C)cc1 0%

Give a short answer stating reported %Inh for CCn1c(-c2nonc2N)nc2ccccc21 . 15%

Retrieve %Inh measured for Cl.NS(=O)(=O)c1cccc(Nc2cc(-c3ccc(F)cc3)n[nH]2)c1 and print it. 0%

Name the recorded %Inh of the molecule listed here: COC(=O)c1c(-c2ccccc2)c2cc(Br)ccc2c(=O)n1Cc1ccc(NC(=O)CCC(=O)O)cc1 7%

// fetch %Inh given entry Cc1cccc(-c2cc(-c3c[nH]nc3-c3ccccn3)ccn2)c1 0%

Return the recorded %Inh value; entry: COc1ccc(-c2coc3ccc(-c4nnc(SCc5cccc(C#N)c5)o4)cc23)cc1 11%

Answer with the recorded %Inh of O=C(Nc1n[nH]c2nc(-c3ccccc3)c(Br)cc12)C1CC1 only. 6%

Let me know recorded %Inh for Cc1ccccc1COc1cc(-n2cnc3cc(Cl)ccc32)sc1C(N)=O , thanks. 33%

***
Identify measured %Inh associated with Nc1n[nH]c2nnc(-c3ccccc3)c(-c3ccccc3)c12 18%

Tell me its %Inh given C[C@@H]1CC[C@H](C(=O)NC2CCCCC2)CN1c1cc(-c2ccc3c(N)n[nH]c3c2)nc(N)n1 as the entry. 26%

For the molecule COc1cccc(C2=C(Nc3cccc(C(=O)O)c3)C(=O)NC2=O)c1 , report %Inh. 21%

Let me know recorded %Inh for CN1C(=O)C(Nc2cc(Cl)c(O)c(Cl)c2)=C(c2ccc(Cl)cc2)C1=O , thanks. 0%

Name the recorded %Inh of the item COc1cc2nccc(Nc3cccc(Oc4ccccc4)c3)c2cc1OC.Cl in your answer. 8%

Please give measured %Inh of the following entry: Cc1nnc(-c2ccc(C)c(-c3ccc(C(=O)O)cc3)c2)o1 0%

Give the reported %Inh for this molecule. Nc1ncnc2c1ncn2-c1ccc(Cl)cc1 0%

Quote %Inh reported for OCCCNc1nccc(-c2c(-c3cccc(C(F)(F)F)c3)nn3cc(C(F)(F)F)ccc23)n1 please. 0%

Note %Inh for the molecule shown: Cc1ccc(Oc2ccc(Nc3ncnc4cc[nH]c34)cc2C)cn1 0%

Provide measured %Inh value, entry: COc1cc2nccc(Nc3ccc(OCc4ccc(NC(C)=O)cc4)cc3)c2cc1OC.Cl 0%

Tell me its %Inh given Cc1cc(Nc2nc(-c3cccc(C)n3)nc3ccccc23)ccn1 as the entry. 0%

Given the molecule COC(=O)c1c(-c2ccccc2)c2cc(Br)ccc2c(=O)n1Cc1ccc(S(C)(=O)=O)cc1 , write its reported %Inh. 12%

Note down %Inh recorded for CCC(=O)c1c(-c2ccccc2)c2cc(Cl)ccc2c(=O)n1Cc1cc(C(=O)NC2CC2)n(C)n1 0%
